ASSAY_EXPLANATION: in vitro
CONDITION_NOTES: human
MEASURED_QUANTITY: CC50

{"columns": ["COMPOUND", "EXPERIMENTAL_RESULT"],
 "data": [
  ["N#Cc1ccc2c(Oc3ccccc3OCCn3ccc(=O)[nH]c3=O)cc(F)cc2c1 [14k]", "> 100 µM"],
  ["O=c1ccn(CCOc2ccccc2Oc2cccc3[nH]ccc23)c(=O)[nH]1", "53 µM"],
  ["N#Cc1cc2c(Oc3ccccc3OCCn3ccc(=O)[nH]c3=O)cccn2c1 [10b]", "> 100 µM"],
  ["N#Cc1cc2cccc(Oc3ccc(F)cc3OCCn3ccc(=O)[nH]c3=O)n2c1 [11a]", "> 100 µM"],
  ["N#Cc1cc2c(Oc3ccc(Cl)cc3OCCn3ccc(=O)[nH]c3=O)cc(Cl)cn2c1 [10n]", "20 µM"]
]}

---

ASSAY_EXPLANATION: in vitro

{"columns": ["COMPOUND", "CC50"],
 "data": [
  ["Cc1ccnc2c1NC(=O)c1cccnc1N2C1CC1 [nevirapine, reference compound]", "> 100 µM"]
]}

---

Here the recorded CC50 is given for each entry.
Test system: human MT-2 T-cells
CONDITION_NOTES: human

{"columns": ["COMPOUND", "CC50"],
 "data": [
  ["N#Cc1cc2c(Oc3ccccc3OCCn3ccc(=O)[nH]c3=O)cc(Cl)cc2o1 [12c]", "> 100 µM"],
  ["N#Cc1ccc2c(Oc3ccc(F)cc3OCCn3ccc(=O)[nH]c3=O)cccc2c1 [14i]", "> 100 µM"],
  ["O=c1ccn(CCOc2ccccc2Oc2cccc3cc(Cl)ccc23)c(=O)[nH]1 [14c]", "> 100 µM"],
  ["O=c1ccn(CCOc2ccccc2Oc2cc(Cl)cc3cc(Cl)ccc23)c(=O)[nH]1 [14d]", "45 µM"],
  ["N#Cc1ccc2c(Oc3ccc(F)cc3OCCn3ccc(=O)[nH]c3=O)cc(F)cc2c1 [14l]", "> 100 µM"]
]}

---

System: human MT-2 T-cells
CONDITION_NOTES: human
# CC50 listing for each entry below

{"columns": ["COMPOUND", "EXPERIMENTAL_SYSTEM", "CC50"],
 "data": [
  ["N#Cc1ccc2c(Oc3ccc(Cl)cc3OCCn3ccc(=O)[nH]c3=O)cccc2c1 [14j]", "human MT-2 T-cells", "> 100 µM"],
  ["N#Cc1ccc2c(Oc3ccccc3OCCn3ccc(=O)[nH]c3=O)cc(F)cc2c1 [14k]", "human MT-2 T-cells", "> 100 µM"],
  ["N#Cc1ccc2c(Oc3ccccc3OCCn3ccc(=O)[nH]c3=O)cccc2c1 [14e]", "human MT-2 T-cells", "> 100 µM"]
]}

---

Items are presented alongside their recorded CC50.
System: human MT-2 T-cells
CONDITION_NOTES: human
MEASURED_QUANTITY: CC50

{"columns": ["COMPOUND", "MEASURED_QUANTITY", "EXPERIMENTAL_RESULT"],
 "data": [
  ["N#Cc1cc2c(Oc3ccccc3OCCn3ccc(=O)[nH]c3=O)cccc2o1 [12a]", "CC50", "> 100 µM"],
  ["N#Cc1cc2c(Oc3ccc(F)cc3OCCn3ccc(=O)[nH]c3=O)cccc2o1 [12d]", "CC50", "> 100 µM"],
  ["N#Cc1cc2c(Oc3ccccc3OCCn3ccc(=O)[nH]c3=O)cccn2c1 [10b]", "CC50", "> 100 µM"]
]}

Where do these numbers come from? They come from patent US9382245B2.
